# experiment_notes: qHTS for differential inhibitors of proliferation of Plasmodium falciparum line 7G8 (AID 1815);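 note: parasite growth measured after three days of incubation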
# measurement_setup: Plasmodium falciparum 7G8 proliferation inhibition; series mostly up to 28.7 µM
Inconclusive results are not listed. Calls of active or inactive are those of the source. Calls come from the whole dose curve; as a rule, active = well fitted curve in the direction sought with a large enough effect; inconclusive = small, poorly fitted or top-dose-only effect, or another doubt; inactive = no such curve, though single readings can be large or run the other way.
Possible outcomes: t for active, f for inactive

compound=COc1ccc2c(c[n+](C)c3c4cc5c(cc4ccc23)OCO5)c1OC assigned_label=t
compound="COc1cc(C(O)CN)ccc1O (stereo unspecified)" assigned_label=f
compound=O=C(O)Cc1cnc[nH]1 assigned_label=f
compound="CC(C)NC(C)Cc1ccc(I)cc1 (stereo unspecified)" assigned_label=t
compound=O=C(O)CC[N+](=O)[O-] assigned_label=f
compound=C[C@@H]1O[C@H](C[N+](C)(C)C)C[C@H]1O assigned_label=f

###

# experiment_notes: qHTS of pediatric cancer cell lines to identify multiple opportunities for drug repurposing: Primary screen for NB-EBc1 cells (AID 1347095)
# measurement_setup: NB-EBc1 neuroblastoma viability, CellTiter-Glo luminescence, 48 h; series mostly up to 46 µM
Results filed as inconclusive are left out. Active and inactive are the calls of the source. Calls come from the whole dose curve; as a rule, active = well fitted cell-killing curve with a large enough effect; inconclusive = small, poorly fitted or top-dose-only effect; inactive = no such curve, though single readings can be large or run the other way.
Possible outcomes: active, inactive

molecule=OCCCBr assigned_label=inactive
molecule=C[C@]12CC[C@@H]3[C@@H](CCC4=CC(=O)CC[C@@H]43)[C@@H]1CC[C@@H]2OC(=O)CCc1ccccc1 assigned_label=inactive
molecule="CCO/N=C(\\CC)C1=C(O)CC(c2c(C)cc(C)cc2C)CC1=O (configuration not stated)" assigned_label=inactive
molecule="O=S(=O)(CC1CS1)c1ccc(Oc2ccccc2)cc1 (configuration not stated)" assigned_label=active
molecule=O=C1CCC[C@@H]2[C@H]3CCCN4CCC[C@@H](CN12)[C@@H]34 assigned_label=inactive
molecule=C1CCC(NC2CCCCC2)CC1 assigned_label=inactive
molecule="CC1(C)CC/C(=C/c2ccc(Cl)cc2)C1(O)Cn1cncn1 (configuration not stated)" assigned_label=inactive

###

# measurement_setup: Ebola virus entry assay, green channel fluorescence
Measured potencies and affinities stand elsewhere. Activity calls are given as the source filed them. How the calls were made is not given here.
assay_endpoint: outcome

molecule=Oc1ccc2c3c1O[C@H]1[C@@H](O)C=C[C@H]4[C@@H](C2)NCC[C@@]341 assay_endpoint=outcome reading=inactive
molecule=c1ccc2occc2c1 assay_endpoint=outcome reading=inactive
molecule=CC1=C(C/C=C(\C)CCC[C@H](C)CCC[C@H](C)CCCC(C)C)C(=O)c2ccccc2C1=O assay_endpoint=outcome reading=inactive
molecule=O=C(Nc1cccc(C2=NCCN2)c1)Nc1cccc(C2=NCCN2)c1 assay_endpoint=outcome reading=inactive
molecule=COc1ccc2c(c1)c1c3n2CCN(C)C3=NCC1 assay_endpoint=outcome reading=inactive
molecule=CC(=O)Oc1ccccc1C(=O)O assay_endpoint=outcome reading=inactive
molecule=S=c1[nH]c2ccccc2s1 assay_endpoint=outcome reading=inactive
molecule=CN1C(=O)CC[C@H]1c1cccnc1 assay_endpoint=outcome reading=inactive
molecule=CCN1CCc2nc(N)oc2CC1 assay_endpoint=outcome reading=inactive
molecule=COc1ccc2cc(CCC(C)=O)ccc2c1 assay_endpoint=outcome reading=inactive
molecule=Oc1c(I)cc(I)c2cccnc12 assay_endpoint=outcome reading=inactive
molecule=O=C(O)CCCOc1ccc(Cl)cc1Cl assay_endpoint=outcome reading=inactive
molecule="CCC(=O)O[C@@H]1C=C2CCC3C(CCC4(C)C3CC[C@@H]4OC(=O)CC)C2CC1 (stereo partly specified)" assay_endpoint=outcome reading=inactive
molecule="CC(C)NCC(O)c1ccc([N+](=O)[O-])cc1 (stereo unspecified)" assay_endpoint=outcome reading=inactive
molecule="CCOP(=O)(NC(C)C)Oc1ccc(SC)c(C)c1 (stereo unspecified)" assay_endpoint=outcome reading=inactive
molecule=O=C1NS(=O)(=O)c2ccccc21 assay_endpoint=outcome reading=inactive
molecule="CC(C)(C)C(O)/C=C/c1ccc2c(c1)OCO2 (stereo unspecified)" assay_endpoint=outcome reading=inactive
molecule=COc1cc2c(cc1OC)C(=O)CC2 assay_endpoint=outcome reading=inactive
molecule=O=C(Oc1ccccc1)c1cccc(C(=O)Oc2ccccc2)c1 assay_endpoint=outcome reading=inactive
molecule=O=C(NO)c1ccccc1 assay_endpoint=outcome reading=inactive
molecule="N#C/C(=C1\\SCC(c2ccccc2Cl)S1)n1ccnc1 (stereo unspecified)" assay_endpoint=outcome reading=inactive
molecule=O=C(O)CNC(=O)CNC(=O)CNC(=O)CSC(=O)c1ccccc1 assay_endpoint=outcome reading=inactive
molecule=CC(C)C(C)(C)C(C)(C)C(C)(C)S assay_endpoint=outcome reading=inactive
molecule=CCN(CC)CCc1nc(-c2ccccc2)no1 assay_endpoint=outcome reading=inactive
molecule=Nc1ccc(N=Nc2ccccc2)cc1 assay_endpoint=outcome reading=inactive
molecule=[Cl][In]([Cl])[Cl] assay_endpoint=outcome reading=inactive
molecule=CCC1(CCC(C)C)C(=O)NC(=O)NC1=O assay_endpoint=outcome reading=inactive
molecule=CC1=NN(c2ccccc2)C(=O)C1 assay_endpoint=outcome reading=inactive
molecule=CCOC(=O)c1c(C)n(C)c2ccc(O)cc12 assay_endpoint=outcome reading=inactive
molecule="O=C(O)CC(O)C(=O)O (stereo unspecified)" assay_endpoint=outcome reading=inactive
molecule=CN1CCN(c2c(F)cc3c(=O)c(C(=O)O)cn4c3c2OCN4C)CC1 assay_endpoint=outcome reading=inactive

###

# experiment_notes: qHTS profiling of the MIPE4 collection as inhibitors of Plasmodium falciparum (HB3) proliferation (AID 743347);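 note: plate controls were DMSO vehicle wells for no effect and artemisinin wells for full effect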
# measurement_setup: P. falciparum HB3 in erythrocytes, SYBR Green DNA, 72 h; at 28.5 µM (top of the series)
assay_endpoint: growth, % of control (%)

molecule=CC[C@@H](C(N)=O)N1CCCC1=O reading=78.5
molecule=CCN1CCN(C(=O)Cc2ccc(Nc3ncc(F)c(Nc4ccc(C(=O)Nc5ccccc5Cl)cc4)n3)cc2)CC1 reading=7.73
molecule=CC(C)[C@]12O[C@@H]1[C@@H]1O[C@]13[C@]1(O[C@H]1C[C@@H]1C4=C(CC[C@@]13C)C(=O)OC4)[C@H]2O reading=44.2
molecule=C1=C2CCCN[C@H]2[C@@H]2C[C@H]1[C@@H]1CCCCN1C2 reading=94.5
molecule=CC(=O)O[C@@]12CO[C@H]1C[C@H](O)[C@@]1(C)C(=O)[C@H](O)C3=C(C)[C@@H](O)C[C@@](O)([C@@H](OC(=O)c4ccccc4)[C@@H]21)C3(C)C reading=34.8
molecule=O=C(O)CNC(=O)c1c(O)c2ccccc2n(Cc2ccccc2)c1=O reading=105
molecule=COC1=C[C@@H]2[C@@H]3Cc4ccc(OC)c(O)c4[C@]2(CCN3C)CC1=O reading=106
molecule=CN(C)NC(=O)CCC(=O)O reading=106
molecule=C[C@]12CCC(=O)C(O)=C1CC[C@@H]1[C@H]3CCC(=O)[C@@]3(C)CC[C@@H]12 reading=54.8
molecule=C[C@@H]1CC[C@H]2[C@@H](C)C(=O)O[C@@H]3O[C@@]4(C)CC[C@H]1[C@]32OO4 reading=7.52
molecule=CC1=NN=C(c2ccc(N)cc2)c2cc3c(cc2C1)OCO3 reading=685
molecule=CC[C@@]1(O)C(=O)OCc2c1cc1n(c2=O)Cc2cc3ccccc3nc2-1 reading=5.89
molecule="N=c1c2c(-c3ccccc3)c(-c3ccccc3)n(Cc3ccccc3)c2ncn1C1CCC(O)CC1 (stereo not drawn)" reading=9.68

###

// reported Potency for each item listed
# experiment_notes: Immunotoxin (SS1P) sensitization/mitigation study. Vehicle arm (DMEM) (AID 1159513); note: potency is the fitted concentration of half-maximal effect
# measurement_setup: cell viability with vehicle (DMEM); series mostly up to 46.1 µM
Active and inactive are the calls of the source. The rule behind the calls is not given here.
assay_endpoint: Potency

given_smiles=CCOc1ccc(Nc2nc(-c3c(C)nc4ccccn34)cs2)cc1 reading="0.0059 µM (active)"
given_smiles=O=C(Nc1cccnc1)N1CCC(Cc2cccc(Oc3ccc(C(F)(F)F)cn3)c2)CC1 reading="6.62 µM (active)"

###

# experiment_notes: Quantitative High-Throughput drug screen in 47 multiple myeloma cell lines against the NCATS MIPE library collection: PCM6_Riken cell viability assay (AID 1919870); note: nearly all actives have a fitted effect of over 30% in size
# measurement_setup: CellTiter-Glo ATP, 48 h; series mostly up to 45.8 µM
Results filed as inconclusive are left out. Active and inactive are the calls of the source. Calls follow the shape of the dose curve; as a rule, active = well fitted cell-killing curve with a large enough effect; inconclusive = small, poorly fitted or top-dose-only effect, or effect the other way; inactive = no such curve, though single readings can be large or run the other way.
Possible outcomes: active, inactive

molecule=CCCN1CCO[C@@H]2c3cc(O)ccc3OC[C@@H]21 assigned_label=inactive
molecule=c1ccc(CCCN2CCN(CCOC(c3ccccc3)c3ccccc3)CC2)cc1 assigned_label=active
molecule="CCCC[N+]1(C)[C@H]2CC(OC(=O)[C@H](CO)c3ccccc3)C[C@H]1[C@H]1O[C@H]12 (stereo partly drawn)" assigned_label=inactive
molecule=COC1=C[C@@H]2[C@@H]3Cc4ccc(OC)c(O)c4[C@]2(CCN3C)CC1=O assigned_label=active
molecule=CCN1C[C@]2(OC(=O)c3ccccc3NC(C)=O)CC[C@H](OC)[C@@]34[C@H]5CC6[C@@H](OC)C[C@](O)(C(C[C@@H]23)[C@@H]14)[C@@]5(O)[C@@H]6OC assigned_label=inactive
molecule=CCN1CCN(C(=O)Cc2ccc(Nc3ncc(F)c(Nc4ccc(C(=O)Nc5ccccc5Cl)cc4)n3)cc2)CC1 assigned_label=active
molecule="CN1[C@H]2CC(O)C[C@H]1[C@H]1O[C@H]12 (stereo partly drawn)" assigned_label=active
molecule=CC(C)(O)C(=O)Nc1ccc([N+](=O)[O-])c(C(F)(F)F)c1 assigned_label=active
molecule=O=c1cccc2n1CC1CNC[C@H]2C1 assigned_label=active
molecule=CC(=O)OCC1=C(C(=O)O)N2C(=O)[C@@H](N)[C@@H]2SC1 assigned_label=inactive
molecule=N#C[C@H](O[C@@H]1O[C@H](CO[C@@H]2O[C@H](CO)[C@H](O)[C@H](O)[C@H]2O)[C@H](O)[C@H](O)[C@H]1O)c1ccccc1 assigned_label=active
molecule=CC(O)=C(C#N)C(=O)Nc1cc(Br)ccc1Br assigned_label=active
molecule=Cc1[nH]nc2ccc(-c3cncc(OC[C@@H](N)Cc4c[nH]c5ccccc45)c3)cc12 assigned_label=active
molecule="O=S(=O)(CC1CS1)c1ccc(Oc2ccccc2)cc1 (stereo not drawn)" assigned_label=active
molecule=C[C@@H]1CC[C@H]2[C@@H](C)C(=O)O[C@@H]3O[C@@]4(C)CC[C@H]1[C@]32OO4 assigned_label=active
molecule=c1ccc2c(CN3CCNCC3)cccc2c1 assigned_label=inactive
molecule=COC[C@H]1OC(=O)c2coc3c2[C@@]1(C)C1=C(C3=O)[C@@H]2CC[C@H](O)[C@@]2(C)C[C@@H]1OC(C)=O assigned_label=active
molecule=CCCCCC[C@H]1C(=O)O[C@H](C)[C@H](NC(=O)c2cccc(NC=O)c2O)C(=O)O[C@@H](C)[C@@H]1OC(=O)CC(C)C assigned_label=active
